target: FMN-binding domain (FMN domain) of flavocytochrome P450BM-3 (BM3) (Priestia megaterium, UniProt P14779)
test readout: Kd (nM)
The reply should contain only the number, in nM.

Exam item: I'd like to know its Kd. The compound in question is Cc1cc2nc3c(=O)[nH]c(=O)nc-3n(C[C@H](O)[C@H](O)[C@H](O)COP(=O)(O)O)c2cc1C [FMN]
Marked response: 41

---

Biological target: FMN-binding domain (FMN domain) of flavocytochrome P450BM-3 (BM3) (Priestia megaterium, UniProt P14779, N538G)
Sequence (P14779 472-650 N538G): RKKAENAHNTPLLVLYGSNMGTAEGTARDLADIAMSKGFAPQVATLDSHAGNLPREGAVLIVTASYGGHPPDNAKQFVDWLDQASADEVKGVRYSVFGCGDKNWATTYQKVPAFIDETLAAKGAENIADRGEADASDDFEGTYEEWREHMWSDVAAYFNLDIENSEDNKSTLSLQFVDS
Assay: titration with apoprotein, FMN absorbance or fluorescence
test readout: pKd
Lab note — pKd values are minus log10 of concentrations in M.

Exam item: Given Cc1cc2nc3c(=O)[nH]c(=O)nc-3n(C[C@H](O)[C@H](O)[C@H](O)COP(=O)(O)O)c2cc1C , state its recorded pKd.
Marked response: 7.52

---

Target: FMN-binding domain (FMN domain) of flavocytochrome P450BM-3 (BM3) (Priestia megaterium, UniProt P14779, N538A)
Sequence (P14779 472-650 N538A): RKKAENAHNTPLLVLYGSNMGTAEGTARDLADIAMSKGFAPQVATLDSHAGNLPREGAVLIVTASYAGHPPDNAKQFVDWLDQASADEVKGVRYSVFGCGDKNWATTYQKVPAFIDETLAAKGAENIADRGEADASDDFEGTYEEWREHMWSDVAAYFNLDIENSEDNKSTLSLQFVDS
Assay: titration with apoprotein, FMN absorbance or fluorescence
test readout: Kd (nM)
A number alone suffices; assume nM.

Exam item: Field request: Kd | item: Cc1cc2nc3c(=O)[nH]c(=O)nc-3n(C[C@H](O)[C@H](O)[C@H](O)COP(=O)(O)O)c2cc1C
Marked response: 30

---

Biological target: FMN-binding domain (FMN domain) of flavocytochrome P450BM-3 (BM3) (Priestia megaterium, UniProt P14779, P542A)
Sequence (P14779 472-650 P542A): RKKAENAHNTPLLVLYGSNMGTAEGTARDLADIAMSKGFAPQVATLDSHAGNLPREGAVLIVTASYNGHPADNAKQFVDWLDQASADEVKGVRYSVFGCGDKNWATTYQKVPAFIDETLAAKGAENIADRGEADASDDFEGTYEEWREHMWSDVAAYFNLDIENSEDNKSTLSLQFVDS
Assay: titration with apoprotein, FMN absorbance or fluorescence
test readout: pKd
Remember, pKd is on a log scale: it is -log10 of the molar concentration.

Exam item: Item under review: Cc1cc2nc3c(=O)[nH]c(=O)nc-3n(C[C@H](O)[C@H](O)[C@H](O)COP(=O)(O)O)c2cc1C . Reported pKd?
Marked response: 6.85

---

target: FMN-binding domain (FMN domain) of flavocytochrome P450BM-3 (BM3) (Priestia megaterium, UniProt P14779, Y537H); assay: titration with apoprotein, FMN absorbance or fluorescence
test readout: Kd (nM)
Please state the figure in nM; there is no need to write the unit.

Exam item: Sample Cc1cc2nc3c(=O)[nH]c(=O)nc-3n(C[C@H](O)[C@H](O)[C@H](O)COP(=O)(O)O)c2cc1C — what was its Kd?
Marked response: 350

---

biological target: FMN-binding domain (FMN domain) of flavocytochrome P450BM-3 (BM3) (Priestia megaterium, UniProt P14779, G539A/N538A); experiment: titration with apoprotein, FMN absorbance or fluorescence
test readout: pKd
Conceptually, pKd converts a concentration in mol/L into minus its log10.

Exam item: What value of measured pKd is listed for Cc1cc2nc3c(=O)[nH]c(=O)nc-3n(C[C@H](O)[C@H](O)[C@H](O)COP(=O)(O)O)c2cc1C ?
Marked response: 6.00

Data provenance is paper PMC2778857.
